// provenance: paper PMC11310207

target: rNln (Met37–Ser704), C-terminal 6xHis-tag, catalytically active (UniProt P42676 37-704); experiment: fluorescence polarisation
Ends that are not written are not given here.
MEASURED PROPERTY: pKd
Give bare numbers, as −log10 of the molar value.

Prompt: Using known records, supply pKd for {FAM}-GGFLRRIRPKLK [FAM-GGFLRRIRPKLK, N-terminally FAM-labeled Dyn A (2–13)]
Completion: 5.83
